- Assay system: SOS1 protein (Homo sapiens, UniProt Q07889)
- Sequence (Q07889 1-1333): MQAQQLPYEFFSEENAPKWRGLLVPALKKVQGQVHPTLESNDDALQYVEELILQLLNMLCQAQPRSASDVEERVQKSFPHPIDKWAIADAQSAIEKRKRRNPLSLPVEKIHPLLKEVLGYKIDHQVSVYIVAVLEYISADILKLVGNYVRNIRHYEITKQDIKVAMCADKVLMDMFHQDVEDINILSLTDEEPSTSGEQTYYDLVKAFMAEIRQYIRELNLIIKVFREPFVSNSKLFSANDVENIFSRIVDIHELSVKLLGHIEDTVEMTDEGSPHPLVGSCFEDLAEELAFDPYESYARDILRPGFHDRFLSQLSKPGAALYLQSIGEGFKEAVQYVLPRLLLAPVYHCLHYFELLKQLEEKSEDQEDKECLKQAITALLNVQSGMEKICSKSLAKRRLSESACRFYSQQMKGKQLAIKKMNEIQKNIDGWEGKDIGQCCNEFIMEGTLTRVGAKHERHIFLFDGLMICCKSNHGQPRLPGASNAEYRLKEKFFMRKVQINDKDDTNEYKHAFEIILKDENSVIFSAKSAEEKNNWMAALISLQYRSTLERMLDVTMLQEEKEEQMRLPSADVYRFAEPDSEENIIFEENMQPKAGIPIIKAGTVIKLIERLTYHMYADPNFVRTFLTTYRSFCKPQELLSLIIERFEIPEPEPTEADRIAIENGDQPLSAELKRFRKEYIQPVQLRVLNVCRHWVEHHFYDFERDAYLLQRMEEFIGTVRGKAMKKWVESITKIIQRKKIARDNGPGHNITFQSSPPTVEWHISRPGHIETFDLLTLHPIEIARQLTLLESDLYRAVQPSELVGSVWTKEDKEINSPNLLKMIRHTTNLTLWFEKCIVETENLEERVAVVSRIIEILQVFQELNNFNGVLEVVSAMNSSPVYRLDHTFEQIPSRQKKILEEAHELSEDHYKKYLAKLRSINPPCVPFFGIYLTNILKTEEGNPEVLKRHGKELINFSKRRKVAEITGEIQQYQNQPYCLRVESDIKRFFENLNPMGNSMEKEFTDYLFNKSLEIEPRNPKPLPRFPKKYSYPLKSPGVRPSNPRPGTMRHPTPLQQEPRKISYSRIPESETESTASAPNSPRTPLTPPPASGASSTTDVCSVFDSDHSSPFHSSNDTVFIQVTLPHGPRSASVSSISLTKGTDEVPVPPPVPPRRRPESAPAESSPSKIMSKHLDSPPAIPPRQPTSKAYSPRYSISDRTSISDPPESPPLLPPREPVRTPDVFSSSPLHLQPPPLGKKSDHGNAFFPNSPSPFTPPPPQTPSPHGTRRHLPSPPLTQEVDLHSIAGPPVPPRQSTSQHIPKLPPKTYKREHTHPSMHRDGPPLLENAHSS
- Protocol: SOS1 degradation assay (Western blot), SW-620 cells
- Format: cell-based
- Parameters: host or cells: SW-620 (human cancer cell lines)
- Study conditions: 24 h, read-out: SW620 (G12V) DC50
- Experimental: The specific procedures were as follows: 0.95 mL of cells were seeded into each well of a 24-well cell culture plate to achieve a cell density of 5×10^5 cells/well; the cell plate was incubated in an incubator at 37° C. with 5% CO2 overnight. […] The concentration of total protein in the cell lysate supernatant was determined using the BCA Protein Quantification Kit (Tiangen, PA115-02). The concentration of total protein in the cell lysate was determined by BCA. […]
Value kind: DC50

Examples with answers:
# Smiles text, Obs value
records = [
    ("COc1cc2nc(C)nc(N[C@H](C)c3cc(N)cc(C(F)(F)F)c3)c2cc1[C@H]1CC[C@H](C(=O)N2CCN(CCC3CCC4(CC3)CCN(C(=O)c3ccc(Cl)c(N5CCC(=O)NC5=O)c3)CC4)CC2)CC1", "< 50 nM"),
    ("COc1cc2nc(C)nc(N[C@H](C)c3cc(N)cc(C(F)(F)F)c3)c2cc1[C@H]1CC[C@H](C(=O)N2CCN(CC3CCC4(CC3)CCN(C(=O)c3ccc(Cl)c(N5CCC(=O)NC5=O)c3)CC4)CC2)CC1", "< 50 nM"),
]

Attention now turns to another entry.
Challenge: Query: DC50; subject: COc1cc2nc(C)nc(N[C@H](C)c3cc(N)cc(C(F)(F)F)c3)c2cc1[C@H]1CC[C@H](C(=O)N2CCC(CCOCC3CCN(C(=O)c4ccc(Cl)c(N5CCC(=O)NC5=O)c4)CC3)CC2)CC1
Response given: < 50 nM

Reference source: patent US20240261417A1
